Source: paper PMC9005681

Kindly state Mean % for each of the entries shown.
target: cloned human or rodent CNS receptors, channels, and transporters (PDSP panel) (Homo sapiens, UniProt P21917); construct: expressed in transfected cells; assay: PDSP GPCR panel primary binding assays at 10 μM; conditions: D4; primary assay, mean inhibition
Sequence (P21917 whole entry): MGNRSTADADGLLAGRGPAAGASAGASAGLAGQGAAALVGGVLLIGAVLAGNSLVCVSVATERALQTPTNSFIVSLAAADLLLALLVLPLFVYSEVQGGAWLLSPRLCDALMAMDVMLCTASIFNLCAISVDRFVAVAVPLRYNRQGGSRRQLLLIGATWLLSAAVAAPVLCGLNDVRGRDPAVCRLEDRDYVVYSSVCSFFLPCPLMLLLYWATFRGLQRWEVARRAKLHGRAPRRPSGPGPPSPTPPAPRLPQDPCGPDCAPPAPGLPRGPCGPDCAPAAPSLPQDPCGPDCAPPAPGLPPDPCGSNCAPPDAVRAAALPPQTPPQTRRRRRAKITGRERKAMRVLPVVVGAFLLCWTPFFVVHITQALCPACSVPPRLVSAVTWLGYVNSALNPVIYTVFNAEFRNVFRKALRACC
Provide only the numeric value, understood in %.

Prompt line: Supply measured Mean % of CCC(=O)N1CCC(NC(=O)Nc2ccc(OC(F)(F)F)cc2)CC1 [UNC10302681A, TPPU] in your reply.
Response line: 5.93

Prompt line: Supply measured Mean % of CC(=O)N1CCC(NC(=O)NC23CC4CC(CC(C4)C2)C3)CC1 [UNC10302683A, AR9281] in your reply.
Response line: -0.6

Prompt line: Supply measured Mean % of CNc1nc(C)nc(N[C@H]2CCC[C@@H](C(=O)NCc3ccc(C#N)cc3C(F)(F)F)C2)n1 [UNC10302679A, GSK2256294A] in your reply.
Response line: 2.7

Prompt line: Supply measured Mean % of O=C(NC1CC1)C(=O)C(Cc1ccccc1)NC(=O)[C@H]1CCC(=O)N1Cc1ccccc1 (stereo partly shown) [UNC10302676A, ABT-957 (Alicapistat)] in your reply.
Response line: 0.58

----------
target: cloned human or rodent CNS receptors, channels, and transporters (PDSP panel) (Homo sapiens, UniProt P34969); construct: expressed in transfected cells; experiment: PDSP GPCR panel primary binding assays at 10 μM; conditions: Receptor 5-HT7A; primary assay, 10 μM
Sequence (P34969 whole entry): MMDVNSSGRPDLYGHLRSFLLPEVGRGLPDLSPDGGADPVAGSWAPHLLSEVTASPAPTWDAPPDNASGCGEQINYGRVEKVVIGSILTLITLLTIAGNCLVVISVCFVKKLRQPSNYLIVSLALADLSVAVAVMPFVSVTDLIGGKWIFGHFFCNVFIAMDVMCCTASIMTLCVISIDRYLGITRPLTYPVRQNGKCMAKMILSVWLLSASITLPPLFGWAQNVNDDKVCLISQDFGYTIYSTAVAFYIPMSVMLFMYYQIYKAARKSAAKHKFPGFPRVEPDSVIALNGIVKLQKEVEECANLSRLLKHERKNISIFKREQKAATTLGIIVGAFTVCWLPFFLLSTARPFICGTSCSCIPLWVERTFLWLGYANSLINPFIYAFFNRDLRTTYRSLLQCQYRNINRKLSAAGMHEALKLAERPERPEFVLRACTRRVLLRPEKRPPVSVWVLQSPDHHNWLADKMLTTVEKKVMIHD
MEASURE_NAME: Inhibition 1
# include the unit after the value

Prompt line: Supply measured Inhibition 1 of O=c1oc2ccccc2cc1-c1cn2cc(Cc3ccc(F)cc3)sc2n1 [UNC10302680A, iMDK] in your reply.
Response line: 13.87%

Prompt line: Supply measured Inhibition 1 of CCCCNc1ncc2c(-c3ccc(CN4CCN(C)CC4)cc3)cn([C@H]3CC[C@H](O)CC3)c2n1 [UNC2025C, UNC2025] in your reply.
Response line: 13.62%

Prompt line: Supply measured Inhibition 1 of c1cn2cc(-c3ccc4cn[nH]c4c3)nc(Nc3ccc(N4CCOCC4)cc3)c2n1 [UNC10302678A, Entospletinib (GS-9973)] in your reply.
Response line: 7.05%

Prompt line: Supply measured Inhibition 1 of Cl.NC(=O)c1cnc(N[C@@H]2CCCC[C@@H]2N)nc1Nc1cccc(-n2nccn2)c1 [UNC10302682A, P505-15 (PRT06207 HCl)] in your reply.
Response line: 33.86%

----------
Kindly state Mean % for each of the entries shown.
biological target: cloned human or rodent CNS receptors, channels, and transporters (PDSP panel) (Homo sapiens); construct: expressed in transfected cells; test: PDSP GPCR panel primary binding assays at 10 μM; conditions: KOR; primary assay, mean inhibition

Prompt line: Supply measured Mean % of CC(=O)N1CCC(NC(=O)NC23CC4CC(CC(C4)C2)C3)CC1 [UNC10302683A, AR9281] in your reply.
Response line: -25.19%

Prompt line: Supply measured Mean % of CCC(=O)N1CCC(NC(=O)Nc2ccc(OC(F)(F)F)cc2)CC1 [UNC10302681A, TPPU] in your reply.
Response line: -14.38%

Prompt line: Supply measured Mean % of CNc1nc(C)nc(N[C@H]2CCC[C@@H](C(=O)NCc3ccc(C#N)cc3C(F)(F)F)C2)n1 [UNC10302679A, GSK2256294A] in your reply.
Response line: -10.86%

Prompt line: Supply measured Mean % of O=C(NC1CC1)C(=O)C(Cc1ccccc1)NC(=O)[C@H]1CCC(=O)N1Cc1ccccc1 (stereo partly shown) [UNC10302676A, ABT-957 (Alicapistat)] in your reply.
Response line: -23.29%

----------
test system: cloned human or rodent CNS receptors, channels, and transporters (PDSP panel); assay: PDSP GPCR panel primary binding assays at 10 μM; settings: Alpha1A; primary assay, replicate 2
Kindly state Inhibition 2 for each of the entries shown.
Provide only the numeric value, understood in %.

Prompt line: Supply measured Inhibition 2 of O=C(NC1CC1)C(=O)C(Cc1ccccc1)NC(=O)[C@H]1CCC(=O)N1Cc1ccccc1 (stereo partly shown) [UNC10302676A, ABT-957 (Alicapistat)] in your reply.
Response line: -31.43

Prompt line: Supply measured Inhibition 2 of CC(=O)N1CCC(NC(=O)NC23CC4CC(CC(C4)C2)C3)CC1 [UNC10302683A, AR9281] in your reply.
Response line: -8.88

Prompt line: Supply measured Inhibition 2 of CNc1nc(C)nc(N[C@H]2CCC[C@@H](C(=O)NCc3ccc(C#N)cc3C(F)(F)F)C2)n1 [UNC10302679A, GSK2256294A] in your reply.
Response line: -7.95

Prompt line: Supply measured Inhibition 2 of CCC(=O)N1CCC(NC(=O)Nc2ccc(OC(F)(F)F)cc2)CC1 [UNC10302681A, TPPU] in your reply.
Response line: -5.33

----------
Kindly state Inhibition 2 for each of the entries shown.
biological target: cloned human or rodent CNS receptors, channels, and transporters (PDSP panel) (Homo sapiens, UniProt P25021); construct: expressed in transfected cells; experiment: PDSP GPCR panel primary binding assays at 10 μM; details: H2; primary assay, replicate 2
Sequence (P25021 whole entry): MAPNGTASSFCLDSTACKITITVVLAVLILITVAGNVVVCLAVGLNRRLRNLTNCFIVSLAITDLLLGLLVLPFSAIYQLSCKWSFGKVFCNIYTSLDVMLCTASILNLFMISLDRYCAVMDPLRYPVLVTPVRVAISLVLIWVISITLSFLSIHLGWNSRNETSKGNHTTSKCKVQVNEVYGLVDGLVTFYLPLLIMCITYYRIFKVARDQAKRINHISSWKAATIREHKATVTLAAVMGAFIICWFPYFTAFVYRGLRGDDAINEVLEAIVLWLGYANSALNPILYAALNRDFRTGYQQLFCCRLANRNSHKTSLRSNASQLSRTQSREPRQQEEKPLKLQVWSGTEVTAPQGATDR
Provide only the numeric value, understood in %.

Prompt line: Supply measured Inhibition 2 of O=C(NC1CC1)C(=O)C(Cc1ccccc1)NC(=O)[C@H]1CCC(=O)N1Cc1ccccc1 (some centres unmarked) [UNC10302676A, ABT-957 (Alicapistat)] in your reply.
Response line: 2.81

Prompt line: Supply measured Inhibition 2 of CC(=O)N1CCC(NC(=O)NC23CC4CC(CC(C4)C2)C3)CC1 [UNC10302683A, AR9281] in your reply.
Response line: -11.17

Prompt line: Supply measured Inhibition 2 of CNc1nc(C)nc(N[C@H]2CCC[C@@H](C(=O)NCc3ccc(C#N)cc3C(F)(F)F)C2)n1 [UNC10302679A, GSK2256294A] in your reply.
Response line: -33.49

Prompt line: Supply measured Inhibition 2 of CCC(=O)N1CCC(NC(=O)Nc2ccc(OC(F)(F)F)cc2)CC1 [UNC10302681A, TPPU] in your reply.
Response line: -11.73

Prompt line: Supply measured Inhibition 2 of O=c1oc2ccccc2cc1-c1cn2cc(Cc3ccc(F)cc3)sc2n1 [UNC10302680A, iMDK] in your reply.
Response line: 15.29

----------
target: cloned human or rodent CNS receptors, channels, and transporters (PDSP panel) (Homo sapiens); construct: expressed in transfected cells; experiment: PDSP GPCR panel primary binding assays at 10 μM; conditions: Receptor 5-HT2A; primary assay, 10 μM
MEASURE_NAME: Inhibition 4 (%)
Provide only the numeric value, understood in %.

Prompt line: Supply measured Inhibition 4 of O=c1oc2ccccc2cc1-c1cn2cc(Cc3ccc(F)cc3)sc2n1 [UNC10302680A, iMDK] in your reply.
Response line: 9.68

Prompt line: Supply measured Inhibition 4 of CCCCNc1ncc2c(-c3ccc(CN4CCN(C)CC4)cc3)cn([C@H]3CC[C@H](O)CC3)c2n1 [UNC2025C, UNC2025] in your reply.
Response line: 89.25

Prompt line: Supply measured Inhibition 4 of Cl.NC(=O)c1cnc(N[C@@H]2CCCC[C@@H]2N)nc1Nc1cccc(-n2nccn2)c1 [UNC10302682A, P505-15 (PRT06207 HCl)] in your reply.
Response line: 0.63

Prompt line: Supply measured Inhibition 4 of c1cn2cc(-c3ccc4cn[nH]c4c3)nc(Nc3ccc(N4CCOCC4)cc3)c2n1 [UNC10302678A, Entospletinib (GS-9973)] in your reply.
Response line: -10.22

----------
biological target: cloned human or rodent CNS receptors, channels, and transporters (PDSP panel) (Homo sapiens, UniProt P28566); construct: expressed in transfected cells; assay: PDSP GPCR panel primary binding assays at 10 μM; settings: Receptor 5-HT1E; primary assay, 10 μM
Sequence (P28566 whole entry): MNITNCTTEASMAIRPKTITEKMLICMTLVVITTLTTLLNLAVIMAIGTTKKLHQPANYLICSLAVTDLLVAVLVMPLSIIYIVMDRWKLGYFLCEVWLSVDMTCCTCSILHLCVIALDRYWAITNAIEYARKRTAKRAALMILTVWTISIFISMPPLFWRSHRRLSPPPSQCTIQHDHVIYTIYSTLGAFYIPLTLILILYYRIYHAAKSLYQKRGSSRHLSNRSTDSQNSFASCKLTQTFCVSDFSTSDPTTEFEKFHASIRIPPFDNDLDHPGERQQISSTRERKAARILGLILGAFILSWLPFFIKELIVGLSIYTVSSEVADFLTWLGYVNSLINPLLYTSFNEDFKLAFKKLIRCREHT
Kindly state Inhibition 3 for each of the entries shown.
# include the unit after the value

Prompt line: Supply measured Inhibition 3 of O=c1oc2ccccc2cc1-c1cn2cc(Cc3ccc(F)cc3)sc2n1 [UNC10302680A, iMDK] in your reply.
Response line: -14.65%

Prompt line: Supply measured Inhibition 3 of c1cn2cc(-c3ccc4cn[nH]c4c3)nc(Nc3ccc(N4CCOCC4)cc3)c2n1 [UNC10302678A, Entospletinib (GS-9973)] in your reply.
Response line: -16.42%

Prompt line: Supply measured Inhibition 3 of Cl.NC(=O)c1cnc(N[C@@H]2CCCC[C@@H]2N)nc1Nc1cccc(-n2nccn2)c1 [UNC10302682A, P505-15 (PRT06207 HCl)] in your reply.
Response line: 0%

Prompt line: Supply measured Inhibition 3 of CCCCNc1ncc2c(-c3ccc(CN4CCN(C)CC4)cc3)cn([C@H]3CC[C@H](O)CC3)c2n1 [UNC2025C, UNC2025] in your reply.
Response line: 0.13%
